test system: MALME-3M melanoma; assay: NCI tumour cell line growth inhibition, 48 h
property: TGI (µM)
Your answer should be a plain number; it is taken to be in µM.

Here's what some known entries look like.
[
  {
    "input-smiles": "COc1cc(C=NCC(=O)CSC(c2ccccc2)c2ccccc2)cc(OC)c1OC",
    "property": "TGI",
    "test-value": 61.7
  },
  {
    "input-smiles": "CCNC1=CC(=O)c2ncccc2C1=O",
    "property": "TGI",
    "test-value": 2.23
  }
]

Now for the compound whose TGI we want.
Annotate the compound "OCC1=C[C@@](COCc2ccccc2)(OCc2ccccc2)[C@@H](OCc2ccccc2)[C@@H]1OCc1ccccc1" with its measured TGI.
44.6

* * *

tested on: SK-MEL-2 melanoma; assay: NCI tumour cell line growth inhibition, 48 h
Entries annotated with measured GI50

Annotate the compound NC(=NC1C2CC3CC(C2)CC1C3)Nc1ccc(I)cc1 (stereo not drawn) with its measured GI50.
2.63 µM

Annotate the compound "CCNC1=CC(=O)c2ncccc2C1=O" with its measured GI50.
2.36 µM

Annotate the compound "Fc1cc(Nc2ccc3c(OCCCN4CCOCC4)cccc3n2)ccc1Cl" with its measured GI50.
1.96 µM

Annotate the compound CCCCCCCCCC[C@@H](O)[C@H]1CC[C@@H]([C@H]2CC[C@H]([C@H](O)CCCCCCCCCC[C@@H]3CC(CC(C)=O)C(=O)O3)O2)O1 (stereo partly drawn) with its measured GI50.
21.5 µM

Annotate the compound "O=C(Nc1ccc(-c2nc3ccc(NC(=O)c4ccc(Cl)cc4)cc3[nH]2)cc1)c1ccc(Cl)cc1" with its measured GI50.
12.6 µM

Annotate the compound "CC1=CC(=O)c2[nH]c3ccccc3c2C1=O" with its measured GI50.
5.37 µM

Annotate the compound "ClCc1ccc(Cn2cnc3ncnc(Cl)c32)cc1" with its measured GI50.
6.3 µM

Annotate the compound "COCCOCCOCCOCCOc1ccc2c(c1)C(=O)c1nc3ncccc3c(=O)n1-2" with its measured GI50.
2.42 µM

* * *

Entries annotated with measured TGI
test system: SF-539 CNS; assay: NCI tumour cell line growth inhibition, 48 h

Here's what some known entries look like.
[
  {
    "molecule": "NC(=O)Nc1n[nH]c(-c2ccccc2)n1",
    "test-value": "> 100 µM"
  },
  {
    "molecule": "CCCNC(=O)Cn1c(-c2ccccc2)cc2ccccc21",
    "test-value": "> 100 µM"
  },
  {
    "molecule": "Fc1cc(Nc2ccc3c(OCCCN4CCOCC4)cccc3n2)ccc1Cl",
    "test-value": "4.01 µM"
  },
  {
    "molecule": "O=c1c2cc(Cl)ccc2n2nnc3ccc(NCCNCCO)c1c32",
    "test-value": "3.32 µM"
  },
  {
    "molecule": "CN(c1ccccc1)c1c(-c2ccccc2)c(=O)oc2c1ccc1occc12",
    "test-value": "> 100 µM"
  }
]

Now for the molecule whose TGI we want.
Annotate the molecule "COC(=O)[C@]12CCC(=O)N1[C@H](C(=O)O)Cc1c2[nH]c2ccccc12" with its measured TGI.
> 100 µM

* * *

test system: MDA-MB-435
Give one outcome, nothing more. List: active, inactive

Worked set:
[
  {
    "input-smiles": "CC(C)=CCC[C@](C)(O)[C@H]1CC[C@]2(C)[C@@H]1CC[C@@H]1[C@@]3(C)CC[C@H](OC(=O)CCC(=O)O)C(C)(C)[C@@H]3CC[C@]12C",
    "classification": "inactive"
  },
  {
    "input-smiles": "CN1C=CN(Cc2ccc(-c3ccccn3)nc2)[CH-]1.CN1C=CN(Cc2ccc(-c3ccccn3)nc2)[CH-]1.[Au+3]",
    "classification": "inactive"
  },
  {
    "input-smiles": "O=C(/C=C/c1cccs1)Nc1ncc(Cc2ccccc2F)s1",
    "classification": "active"
  }
]

Here's the next entry for you.
Dear all, I need the recorded test outcome for "C/C(=N\n1c(N)c(C#N)c(-c2ccc(Cl)cc2)c(C#N)c1=O)c1cccnc1" , thank you.
inactive

Data credit: PubChem BioAssay (NCI)
